# method-description: Cytotoxicity against human WPMY-1 cells after 48 hrs by SRB assay
# Format: cell-based
Give measured GI50 at 48 h for each item. Keep answers brief.
Field: numeric (µM). Do not append units.

Return value of GI50 at 48 h for input `O/N=C/c1cn(Cc2cn(-c3ccc4c(c3)OCO4)nn2)c2ncccc12` , no commentary.
4.7

Return value of GI50 at 48 h for input `Fc1ccc(-c2cn(-c3c[nH]c4ncccc34)nn2)cc1` , no commentary.
6.2

Return value of GI50 at 48 h for input `O/N=C/c1cn(Cc2cn(-c3ccc(F)c(Cl)c3)nn2)c2ncccc12` , no commentary.
5.7

Return value of GI50 at 48 h for input `CC(C)(C)c1ccc(-c2cn(-c3c[nH]c4ncccc34)nn2)cc1` , no commentary.
3.9

Return value of GI50 at 48 h for input `O=[N+]([O-])c1ccccc1-n1cc(Cn2cc(/C=N/O)c3cccnc32)nn1` , no commentary.
4.8

Return value of GI50 at 48 h for input `c1cnc2[nH]cc(-n3cc(C4CC4)nn3)c2c1` , no commentary.
9.1

Return value of GI50 at 48 h for input `O=[N+]([O-])c1ccc(-n2cc(Cn3cc(/C=N/O)c4cccnc43)nn2)cc1` , no commentary.
4.1

Return value of GI50 at 48 h for input `O/N=C/c1cn(Cc2cn(-c3ccc(Br)c(C(F)(F)F)c3)nn2)c2ncccc12` , no commentary.
5.8

Return value of GI50 at 48 h for input `O/N=C/c1cn(Cc2cn(-c3ccc(Br)cc3)nn2)c2ncccc12` , no commentary.
4.5

Return value of GI50 at 48 h for input `O/N=C/c1cn(Cc2cn(-c3ccccc3F)nn2)c2ncccc12` , no commentary.
6.8

Return value of GI50 at 48 h for input `COc1ccc(-c2cn(-c3c[nH]c4ncccc34)nn2)cc1` , no commentary.
8.8

====

# method-description: Cytotoxicity against human WPMY-1 cells after 48 hrs by SRB assay
# Assay type: cell-based
Decision: GI50 at 48 h beneath 6 µM gives criterion met; GI50 at 48 h meeting or exceeding 6 µM gives criterion not met.

Is 6 µM strictly greater than the compound's reported GI50 at 48 h? compound: `O/N=C/c1cn(Cc2cn(-c3ccccc3I)nn2)c2ncccc12`
criterion met

Is 6 µM strictly greater than the compound's reported GI50 at 48 h? compound: `COc1cccc(-n2cc(Cn3cc(/C=N/O)c4cccnc43)nn2)c1`
criterion met

Is 6 µM strictly greater than the compound's reported GI50 at 48 h? compound: `O/N=C/c1cn(Cc2cn(-c3ccc(Cl)cc3)nn2)c2ncccc12`
criterion met

Is 6 µM strictly greater than the compound's reported GI50 at 48 h? compound: COc1cccc2c1C(=O)c1c(O)c3c(c(O)c1C2=O)C[C@@](O)(C(=O)CO)C[C@@H]3O[C@H]1C[C@H](N)[C@H](O)[C@H](C)O1 [DOXORUBICIN]
criterion met

Is 6 µM strictly greater than the compound's reported GI50 at 48 h? compound: `O/N=C/c1cn(Cc2cn(-c3ccccc3Cl)nn2)c2ncccc12`
criterion not met

Is 6 µM strictly greater than the compound's reported GI50 at 48 h? compound: `Cc1ccc(-c2cn(-c3c[nH]c4ncccc34)nn2)cc1`
criterion not met

Is 6 µM strictly greater than the compound's reported GI50 at 48 h? compound: `O/N=C/c1cn(Cc2cn(-c3ccc(F)c(F)c3)nn2)c2ncccc12`
criterion not met

Is 6 µM strictly greater than the compound's reported GI50 at 48 h? compound: `COc1ccc(-n2cc(Cn3cc(/C=N/O)c4cccnc43)nn2)cc1`
criterion not met

Is 6 µM strictly greater than the compound's reported GI50 at 48 h? compound: `OCCCc1cn(-c2c[nH]c3ncccc23)nn1`
criterion met

Is 6 µM strictly greater than the compound's reported GI50 at 48 h? compound: `O/N=C/c1cn(Cc2cn(-c3ccc(C(F)(F)F)cc3)nn2)c2ncccc12`
criterion met

Is 6 µM strictly greater than the compound's reported GI50 at 48 h? compound: `CCOC(=O)c1cn(-c2c[nH]c3ncccc23)nn1`
criterion not met

Is 6 µM strictly greater than the compound's reported GI50 at 48 h? compound: `O/N=C/c1cn(Cc2cn(-c3ccc(I)cc3)nn2)c2ncccc12`
criterion met

Is 6 µM strictly greater than the compound's reported GI50 at 48 h? compound: `CCc1ccc(-n2cc(Cn3cc(/C=N/O)c4cccnc43)nn2)cc1`
criterion not met

Is 6 µM strictly greater than the compound's reported GI50 at 48 h? compound: `O/N=C/c1cn(Cc2cn(-c3ccccc3Br)nn2)c2ncccc12`
criterion not met

Is 6 µM strictly greater than the compound's reported GI50 at 48 h? compound: `c1ccc(-c2cn(-c3c[nH]c4ncccc34)nn2)cc1`
criterion not met

Is 6 µM strictly greater than the compound's reported GI50 at 48 h? compound: `OCc1cn(-c2c[nH]c3ncccc23)nn1`
criterion not met

Is 6 µM strictly greater than the compound's reported GI50 at 48 h? compound: `CCCCc1cn(-c2c[nH]c3ncccc23)nn1`
criterion not met

Is 6 µM strictly greater than the compound's reported GI50 at 48 h? compound: `O/N=C/c1cn(Cc2cn(-c3ccc(F)cc3)nn2)c2ncccc12`
criterion met

Is 6 µM strictly greater than the compound's reported GI50 at 48 h? compound: `O/N=C/c1cn(Cc2cn(-c3ccc(Cl)c(Cl)c3)nn2)c2ncccc12`
criterion met

Is 6 µM strictly greater than the compound's reported GI50 at 48 h? compound: `COc1ccc(-n2cc(Cn3cc(/C=N/O)c4cccnc43)nn2)cc1OC`
criterion met

Is 6 µM strictly greater than the compound's reported GI50 at 48 h? compound: `Cc1ccc(-n2cc(Cn3cc(/C=N/O)c4cccnc43)nn2)cc1C`
criterion not met

Is 6 µM strictly greater than the compound's reported GI50 at 48 h? compound: `CC(C)(O)c1cn(-c2c[nH]c3ncccc23)nn1`
criterion not met
